assay: self-splicing fitness, log relative to wild type (ln ratio); higher = more splicing; Tetrahymena group I intron in knt gene, E. coli kanamycin selection, DiMSum; sequences stand for … in CUCUCU…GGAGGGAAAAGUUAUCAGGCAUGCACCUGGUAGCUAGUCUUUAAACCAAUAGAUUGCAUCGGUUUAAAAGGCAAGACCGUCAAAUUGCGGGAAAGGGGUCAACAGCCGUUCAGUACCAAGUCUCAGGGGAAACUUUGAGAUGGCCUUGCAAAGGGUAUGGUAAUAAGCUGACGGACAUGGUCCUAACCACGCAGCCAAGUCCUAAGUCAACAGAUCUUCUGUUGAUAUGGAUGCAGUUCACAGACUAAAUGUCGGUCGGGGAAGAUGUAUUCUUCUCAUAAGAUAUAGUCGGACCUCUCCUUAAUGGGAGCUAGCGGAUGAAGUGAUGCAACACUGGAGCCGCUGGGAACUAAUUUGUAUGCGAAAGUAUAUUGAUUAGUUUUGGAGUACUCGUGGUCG; conditions: 37 °C;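 also: selection with 25 µg/mL kanamycin versus none on LB agar overnight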
Label scheme for self-splicing fitness (ln): low-valued (below -2), mid-valued (-2 to below -1), high-valued (-1 or more)

Use the examples below as a reference point.
CGCGAGCAAUAUUACGUAAA low-valued
GAAUAGCAAUAUUACGCCAA mid-valued
AGAUAGCAAUAUUACGGGGC low-valued
CUGCAGCAAUAUUACGAUGA low-valued
CUACAGCAAUAUUACGUACU mid-valued

Task item: Class (by measured self-splicing fitness (ln)) for `CUCUAGCAAUAUUACGUGCU`
Reply: low-valued

Task item: Class (by measured self-splicing fitness (ln)) for `ACUCAGCAAUAUUACGGAGU`
Reply: low-valued

###

test: self-splicing fitness, log relative to wild type (ln ratio); higher = more splicing; Tetrahymena group I intron in knt gene, E. coli kanamycin selection, DiMSum; sequences stand for … in CUCUCU…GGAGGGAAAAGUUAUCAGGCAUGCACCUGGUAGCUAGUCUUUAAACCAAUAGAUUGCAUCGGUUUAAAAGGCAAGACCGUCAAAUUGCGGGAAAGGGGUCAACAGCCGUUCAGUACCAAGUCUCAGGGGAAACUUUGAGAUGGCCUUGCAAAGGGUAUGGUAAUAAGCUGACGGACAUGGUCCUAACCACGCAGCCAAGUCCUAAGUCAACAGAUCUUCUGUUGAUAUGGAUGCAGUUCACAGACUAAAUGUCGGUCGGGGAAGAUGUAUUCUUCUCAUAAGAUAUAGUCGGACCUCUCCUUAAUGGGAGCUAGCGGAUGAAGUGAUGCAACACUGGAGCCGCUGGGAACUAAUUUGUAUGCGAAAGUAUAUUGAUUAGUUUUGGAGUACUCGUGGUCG; conditions: 30 °C
Label scheme for self-splicing fitness (ln): bin A = under -3, bin B = from -3 up to -2, bin C = -2 and over

Task item: Class (by measured self-splicing fitness (ln)) for `UCUUAGCAAUAUUACGGGCC`
Reply: bin A

Task item: Class (by measured self-splicing fitness (ln)) for `UGUAAGCAAUAUUACGGGUA`
Reply: bin C

Task item: Class (by measured self-splicing fitness (ln)) for `GCAAAGCAAUAUUACGCCGU`
Reply: bin B

###

experiment: self-splicing fitness, log relative to wild type (ln ratio); higher = more splicing; Tetrahymena group I intron in knt gene, E. coli kanamycin selection, DiMSum; sequences stand for … in CUCUCU…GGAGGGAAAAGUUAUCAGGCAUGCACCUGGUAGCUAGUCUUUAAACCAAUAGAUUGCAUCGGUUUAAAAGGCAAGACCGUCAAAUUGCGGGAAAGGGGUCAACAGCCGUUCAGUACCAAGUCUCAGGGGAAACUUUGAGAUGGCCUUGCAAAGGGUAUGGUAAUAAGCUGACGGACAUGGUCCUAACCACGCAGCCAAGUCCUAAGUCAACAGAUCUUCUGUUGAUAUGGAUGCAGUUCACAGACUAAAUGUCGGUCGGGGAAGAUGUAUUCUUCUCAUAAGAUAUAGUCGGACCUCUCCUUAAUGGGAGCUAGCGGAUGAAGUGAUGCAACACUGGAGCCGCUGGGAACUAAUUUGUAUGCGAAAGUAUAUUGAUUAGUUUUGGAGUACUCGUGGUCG; conditions: 30 °C
Would you mind labelling by self-splicing fitness (ln)? At or over -3 is Criterion met, under is Criterion not met.

Use the examples below as a reference point.
UUUAAGCAAUAUUACGCCUU Criterion met
CCUAAGCAAUAUUACGAUCG Criterion met
CGCUAGCAAUAUUACGGGAA Criterion not met

Below: the item to evaluate.
Task item: Say whether `UAUGAGCAAUAUUACGUUAU` shows self-splicing fitness (ln) of -3 or more.
Reply: Criterion not met
